Recorded values, source PubChem BioAssay AID2685.

# method notes: qHTS Assay for Lipid Storage Modulators in Drosophila S3 Cells
# experimental setup: BODIPY lipid droplet fluorescence, 18-24 h, cells fed with added oleic acid; series mostly up to 46.1 µM
Among all 320,000 compounds or so, about 2,100 (0.66%) were called active. Another 53% or so got no clear call; they are omitted. Calls follow the shape of the dose curve; as a rule, active = well fitted inhibition curve with a large enough effect in the signal ratio, with a control signal flat (not every such curve was filed as active); inconclusive = small, poorly fitted or top-dose-only effect, or effect the other way, or a change in a side signal; inactive = flat fitted curve, though single readings scatter; the % refers to the signal ratio. The list comes from a sample in which actives are over-represented; it also holds close analogues and randomly drawn compounds.
Possible outcomes: active, inactive

1. COC(=O)c1ccc(NS(=O)(=O)c2ccc(OC)cc2)cc1	inactive
2. O=C(c1cc(COc2ccccc2)on1)N1CCCC(OCc2cccnc2)C1 (stereo not drawn)	active
3. O=C(CCC1CCCN(C(=O)c2ccc3c(c2)OCO3)C1)N1CCN(c2ccccn2)CC1 (stereo not drawn)	inactive
4. OCC(O)C(O)C(O)C(O)C1NCCS1 (stereo not drawn)	inactive
5. COc1ccccc1Nc1ccc([N+](=O)[O-])cn1	inactive
6. CCCOc1ccc(C2NC(=O)CCC2[N+](=O)[O-])cc1 (stereo not drawn)	inactive
7. COc1ccc(NS(=O)(=O)c2ccc(N)c(C(=O)O)c2)cc1	active
8. COc1ccc(Nc2ccc([N+](=O)[O-])cn2)cn1	active
9. Cc1ccc(S(=O)(=O)NNC(=O)C2CCCCC2)cc1	active
10. COc1ccc(Nc2ccc([N+](=O)[O-])cn2)cc1	inactive
11. COc1ccccc1OCc1cc(C(=O)N2CCCC(OCc3cccnc3)C2)no1 (stereo not drawn)	inactive
12. COc1cccc(OCc2cc(C(=O)N3CCN(C(C)=O)CC3)no2)c1	inactive
13. O=C(O)c1ccc(NS(=O)(=O)c2ccc(N3CCCC3)c([N+](=O)[O-])c2)cc1	inactive
14. COc1ccc(S(=O)(=O)Nc2ccc(NC(C)=O)cc2)cc1	inactive
15. COc1ccc(NS(=O)(=O)c2ccc(N3CCN(CCO)CC3)c([N+](=O)[O-])c2)cc1	active
16. COc1ccc(NS(=O)(=O)c2ccc(C)c(C(=O)O)c2)cc1	active
17. N#Cc1ccc(Cl)cc1NC(=O)CNCc1cccs1	inactive
18. CC(C)CN(CC(C)C)S(=O)(=O)N1CCC(C(=O)NCc2ccco2)CC1	inactive
19. O=C(Nc1ccc(S(=O)(=O)N2CCCCC2)cc1)C1CC1	inactive
20. Cc1c(NC(=O)Nc2ccc([N+](=O)[O-])cc2)c(=O)n(-c2ccccc2)n1C	inactive
21. O=C(COC(=O)C1COc2ccccc2O1)Nc1cccc(Cl)c1 (stereo not drawn)	inactive
22. COc1ccc(CN2CC(C(=O)NCCc3ccc(C)cc3)CC2=O)cc1 (stereo not drawn)	inactive
23. COc1cccc(OCc2cc(C(=O)N3CCC(c4ccncc4)CC3)no2)c1	active
